Every entry's value here was drawn from ChEMBL document CHEMBL1132197.

target: Human immunodeficiency virus type 1 protease (Human immunodeficiency virus 1, UniProt Q72874)
Binary label based on Ki with cut-off 3 nM: below gives YES, not below gives NO.

input: # strict comparison: is reported Ki < 3 nM? input = O=C1N(Cc2ccccc2)[C@H]([C@@H](Br)Cc2ccccc2)[C@@H](O)[C@@H](Cc2ccccc2)N1Cc1ccccc1
output: NO

input: # strict comparison: is reported Ki < 3 nM? input = O=C1N[C@H](CCc2ccccc2)[C@@H](O)[C@@H](Cc2ccccc2)N1Cc1cccc(O)c1
output: YES

input: # strict comparison: is reported Ki < 3 nM? input = Nc1cccc(CN2C(=O)N(Cc3ccc4[nH]nc(N)c4c3)[C@H](CCc3ccccc3)[C@@H](O)[C@H]2Cc2ccccc2)c1
output: YES

input: # strict comparison: is reported Ki < 3 nM? input = O=C1N(CC2CC2)[C@H](CCc2ccccc2)[C@@H](O)[C@@H](Cc2ccccc2)N1CC1CC1
output: NO

input: # strict comparison: is reported Ki < 3 nM? input = O=C(O)c1cccc(CN2C(=O)N(Cc3cccc(C(=O)O)c3)[C@H](Cc3ccccc3)[C@H](O)[C@H]2CCc2ccccc2)c1
output: YES

input: # strict comparison: is reported Ki < 3 nM? input = Nc1[nH]nc2ccc(CN3C(=O)N(Cc4ccccc4)[C@H](CCc4ccccc4)[C@@H](O)[C@H]3Cc3ccccc3)cc12
output: YES

---

target: Human immunodeficiency virus type 1 protease (Human immunodeficiency virus 1)
Could you please report measured Ki for the items listed next?
A number alone suffices; assume nM.

input: Report measured Ki; entry is N#Cc1cccc(CN2C(=O)N(Cc3cccc(N)c3)[C@H](Cc3ccccc3)[C@H](O)[C@H]2CCc2ccccc2)c1
output: 1.6

input: Report measured Ki; entry is NC(=O)c1cccc(CN2C(=O)N(Cc3cccc(C(N)=O)c3)[C@H](Cc3ccc(F)c(F)c3)[C@H](O)[C@H]2CCc2ccc(F)c(F)c2)c1
output: 0.15

input: Report measured Ki; entry is O=C1N(Cc2cccc(CO)c2)[C@H]([C@@H](Br)Cc2ccccc2)[C@@H](O)[C@@H](Cc2ccccc2)N1Cc1cccc(CO)c1
output: 11

input: Report measured Ki; entry is Nc1[nH]nc2ccc(CN3C(=O)N(Cc4ccccc4)[C@H](Cc4ccccc4)[C@H](O)[C@H]3CCc3ccccc3)cc12
output: 0.65

input: Report measured Ki; entry is O=C1N(Cc2ccc3[nH]ncc3c2)[C@H](CCc2ccccc2)[C@@H](O)[C@@H](Cc2ccccc2)N1Cc1ccc2[nH]ncc2c1
output: 0.02

input: Report measured Ki; entry is [N-]=[N+]=N[C@@H](Cc1ccccc1)[C@@H]1[C@@H](O)[C@@H](Cc2ccccc2)N(Cc2ccc3ccccc3c2)C(=O)N1Cc1ccc2ccccc2c1
output: 330

input: Report measured Ki; entry is Nc1cccc(CN2C(=O)N(Cc3ccc4[nH]ncc4c3)[C@H](Cc3ccccc3)[C@H](O)[C@H]2CCc2ccccc2)c1
output: 0.08

input: Report measured Ki; entry is Cc1n[nH]c2ccc(CN3C(=O)N(Cc4ccc5[nH]nc(C)c5c4)[C@H](Cc4ccccc4)[C@H](O)[C@H]3CCc3ccccc3)cc12
output: 0.1

input: Report measured Ki; entry is NC(=O)c1cc(CN2C(=O)N[C@H](CCc3ccccc3)[C@@H](O)[C@H]2Cc2ccccc2)ccc1F
output: 14

input: Report measured Ki; entry is N#Cc1cccc(CN2C(=O)N[C@H](CCc3ccccc3)[C@@H](O)[C@H]2Cc2ccccc2)c1
output: 15

input: Report measured Ki; entry is Cc1n[nH]c2ccc(CN3C(=O)N(Cc4cccc(N)c4)[C@H](Cc4ccccc4)[C@H](O)[C@H]3CCc3ccccc3)cc12
output: 0.13

input: Report measured Ki; entry is O=C1N[C@H](CCc2ccccc2)[C@@H](O)[C@@H](Cc2ccccc2)N1Cc1ccc2[nH]ncc2c1
output: 1.2

input: Report measured Ki; entry is N/C(=N\O)c1cc(CN2C(=O)N[C@H](CCc3ccccc3)[C@@H](O)[C@H]2Cc2ccccc2)ccc1F
output: 1.4

input: Report measured Ki; entry is N=C(NO)c1cc(CN2C(=O)N(Cc3ccc(F)c(C(=N)NO)c3)[C@H](Cc3ccccc3)[C@H](O)[C@H]2CCc2ccccc2)ccc1F
output: 0.06

input: Report measured Ki; entry is O=C1N(Cc2ccccc2)C[C@@H](O)[C@@H](Cc2ccccc2)N1Cc1ccccc1
output: 2400
